Molecular target: T1, human chemokine (C-C motif) receptor 8 (CCR8) (human, UniProt P51685 1-355)
T1 construct: On human peripheral blood lymphocytes / PBMC (native) or on human CCR8 GFP-transfected Ba/F3 cells; also called hCCR8; human CCR8
T1 sequence (P51685 whole entry): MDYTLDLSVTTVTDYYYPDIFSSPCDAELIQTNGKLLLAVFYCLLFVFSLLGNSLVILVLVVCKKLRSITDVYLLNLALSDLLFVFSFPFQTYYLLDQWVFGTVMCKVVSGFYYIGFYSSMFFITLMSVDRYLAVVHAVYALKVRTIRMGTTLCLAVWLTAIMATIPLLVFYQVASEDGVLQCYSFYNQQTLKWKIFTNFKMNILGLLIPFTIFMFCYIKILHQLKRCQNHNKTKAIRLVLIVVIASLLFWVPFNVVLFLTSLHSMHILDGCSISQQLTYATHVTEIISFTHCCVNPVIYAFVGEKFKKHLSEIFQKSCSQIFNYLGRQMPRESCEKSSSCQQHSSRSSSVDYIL
Test: flow cytometry blocking, PBMC CCR8+ CD4+ cells; competitor PE-AB1 (its MFI is read)
measured-quantity: MFI
Just the number.

See these solved cases before continuing.
AB13 (antibody, V domains shown, Hybridoma monoclonal; also called antibody 13; clone 13) VH: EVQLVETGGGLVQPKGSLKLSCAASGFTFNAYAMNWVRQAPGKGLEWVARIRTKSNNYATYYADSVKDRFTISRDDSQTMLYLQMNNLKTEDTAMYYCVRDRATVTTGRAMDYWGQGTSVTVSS VL: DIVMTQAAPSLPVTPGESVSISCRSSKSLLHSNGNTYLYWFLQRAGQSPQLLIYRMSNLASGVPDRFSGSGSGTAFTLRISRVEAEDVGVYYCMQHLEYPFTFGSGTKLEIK = 927
AB3 (antibody, V domains shown, Hybridoma monoclonal; also called antibody 3; clone 3) VH: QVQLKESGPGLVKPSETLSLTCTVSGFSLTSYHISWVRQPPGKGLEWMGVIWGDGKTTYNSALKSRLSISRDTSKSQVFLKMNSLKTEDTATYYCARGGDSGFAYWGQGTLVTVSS VL: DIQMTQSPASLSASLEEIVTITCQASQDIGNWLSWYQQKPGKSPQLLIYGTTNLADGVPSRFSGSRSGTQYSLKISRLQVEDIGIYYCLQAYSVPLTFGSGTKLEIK = 416
AB8 (antibody, V domains shown, Hybridoma monoclonal; also called antibody 8; clone 8) VH: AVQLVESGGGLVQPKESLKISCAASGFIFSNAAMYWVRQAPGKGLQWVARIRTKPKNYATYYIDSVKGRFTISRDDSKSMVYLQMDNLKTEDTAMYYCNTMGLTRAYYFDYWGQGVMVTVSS VL: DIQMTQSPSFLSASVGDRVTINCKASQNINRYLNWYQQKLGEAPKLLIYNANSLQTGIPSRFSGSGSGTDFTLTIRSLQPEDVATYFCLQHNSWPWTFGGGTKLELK = 980
AB2 (antibody, V domains shown, Hybridoma monoclonal; also called antibody 2; clone 2) VH: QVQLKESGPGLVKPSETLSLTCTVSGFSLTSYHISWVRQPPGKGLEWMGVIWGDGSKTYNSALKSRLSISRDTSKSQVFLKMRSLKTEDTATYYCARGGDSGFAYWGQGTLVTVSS VL: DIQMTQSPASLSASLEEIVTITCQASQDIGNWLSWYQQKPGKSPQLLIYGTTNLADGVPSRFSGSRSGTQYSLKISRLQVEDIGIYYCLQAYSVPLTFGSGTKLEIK = 567
AB5 (antibody, V domains shown, Hybridoma monoclonal; also called antibody 5; clone 5) VH: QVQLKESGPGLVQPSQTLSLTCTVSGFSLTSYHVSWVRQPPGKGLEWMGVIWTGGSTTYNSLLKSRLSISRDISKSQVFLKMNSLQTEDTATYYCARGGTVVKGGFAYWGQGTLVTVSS VL: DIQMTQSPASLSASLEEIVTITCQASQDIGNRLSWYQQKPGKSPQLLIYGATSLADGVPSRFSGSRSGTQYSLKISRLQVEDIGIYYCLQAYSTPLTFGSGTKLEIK = 395

Look up MFI: AB4 (antibody, V domains shown, Hybridoma monoclonal; also called antibody 4; clone 4) VH: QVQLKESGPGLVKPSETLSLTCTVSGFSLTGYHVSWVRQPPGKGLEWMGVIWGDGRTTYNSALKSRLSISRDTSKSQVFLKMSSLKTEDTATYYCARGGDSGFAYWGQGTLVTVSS VL: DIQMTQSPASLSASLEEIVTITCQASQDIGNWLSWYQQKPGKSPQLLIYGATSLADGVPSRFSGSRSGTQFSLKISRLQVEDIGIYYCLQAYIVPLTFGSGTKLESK 0

Query: MFI; subject: AB1 (antibody, V domains shown, Hybridoma monoclonal (mice or rats immunised); Used purified and PE-conjugated; also called antibody 1; clone 1) VH: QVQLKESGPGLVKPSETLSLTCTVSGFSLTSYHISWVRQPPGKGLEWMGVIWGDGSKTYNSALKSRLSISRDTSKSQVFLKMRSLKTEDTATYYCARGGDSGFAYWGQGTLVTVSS VL: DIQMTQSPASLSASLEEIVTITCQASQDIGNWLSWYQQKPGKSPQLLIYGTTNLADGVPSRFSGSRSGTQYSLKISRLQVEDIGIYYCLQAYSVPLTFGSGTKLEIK 467

State the recorded MFI for this entry: AB10 (antibody, V domains shown, Hybridoma monoclonal; also called antibody 10; clone 10) VH: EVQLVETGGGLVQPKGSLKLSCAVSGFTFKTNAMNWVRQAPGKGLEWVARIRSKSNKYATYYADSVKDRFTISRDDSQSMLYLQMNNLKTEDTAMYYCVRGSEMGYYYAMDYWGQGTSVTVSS VL: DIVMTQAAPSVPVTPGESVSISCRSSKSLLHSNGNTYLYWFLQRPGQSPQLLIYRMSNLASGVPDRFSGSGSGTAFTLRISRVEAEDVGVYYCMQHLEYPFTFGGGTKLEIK 1060

Using the record for AB12 (antibody, V domains shown, Hybridoma monoclonal; also called antibody 12; clone 12) VH: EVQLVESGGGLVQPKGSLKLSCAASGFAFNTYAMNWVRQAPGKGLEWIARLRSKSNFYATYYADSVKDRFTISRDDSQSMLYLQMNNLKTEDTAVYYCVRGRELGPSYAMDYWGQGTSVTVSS VL: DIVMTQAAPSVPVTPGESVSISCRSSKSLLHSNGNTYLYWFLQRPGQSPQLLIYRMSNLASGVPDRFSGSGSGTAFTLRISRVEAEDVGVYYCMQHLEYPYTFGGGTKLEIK , report its MFI. 953

Fill in the blank: the reported MFI of AB11 (antibody, V domains shown, Hybridoma monoclonal; also called antibody 11; clone 11) VH: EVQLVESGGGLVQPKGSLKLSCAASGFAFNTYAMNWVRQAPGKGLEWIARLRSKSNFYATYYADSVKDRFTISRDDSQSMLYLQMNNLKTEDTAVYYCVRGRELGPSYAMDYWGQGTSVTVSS VL: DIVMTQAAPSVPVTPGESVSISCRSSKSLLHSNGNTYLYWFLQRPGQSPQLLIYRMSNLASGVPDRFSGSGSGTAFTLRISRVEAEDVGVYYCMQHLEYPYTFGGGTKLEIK is ____. 971

Looking for the measured MFI of AB14 (antibody, V domains shown, Hybridoma monoclonal; also called antibody 14; clone 14) VH: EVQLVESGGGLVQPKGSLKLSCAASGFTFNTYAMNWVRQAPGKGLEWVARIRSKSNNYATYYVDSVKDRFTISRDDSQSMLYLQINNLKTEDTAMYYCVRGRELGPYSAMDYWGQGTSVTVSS VL: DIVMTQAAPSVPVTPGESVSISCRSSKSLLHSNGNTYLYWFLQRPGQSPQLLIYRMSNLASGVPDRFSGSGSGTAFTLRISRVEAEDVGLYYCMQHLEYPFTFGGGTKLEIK , can you help? 916
